targetOfAssay: P450 2W1 (Homo sapiens)
protocolDetails: Steady-state kinetics of P450 2W1-catalyzed oxidation
Format: in vitro ADME
conditionDetails: human, pH 7.4, Km, P450 2W1, substrate GW 610, product 4c
metricName: Km at 10 min (µM)
I only need the number, in µM, no unit after it.

Response field Km at 10 min (P450 2W1 (Homo sapiens)) for item COc1ccc(-c2nc3cc(F)ccc3s2)cc1OC : 22

* * *

targetOfAssay: P450 2W1 (Homo sapiens)
Sequence (Q8TAV3 23-490): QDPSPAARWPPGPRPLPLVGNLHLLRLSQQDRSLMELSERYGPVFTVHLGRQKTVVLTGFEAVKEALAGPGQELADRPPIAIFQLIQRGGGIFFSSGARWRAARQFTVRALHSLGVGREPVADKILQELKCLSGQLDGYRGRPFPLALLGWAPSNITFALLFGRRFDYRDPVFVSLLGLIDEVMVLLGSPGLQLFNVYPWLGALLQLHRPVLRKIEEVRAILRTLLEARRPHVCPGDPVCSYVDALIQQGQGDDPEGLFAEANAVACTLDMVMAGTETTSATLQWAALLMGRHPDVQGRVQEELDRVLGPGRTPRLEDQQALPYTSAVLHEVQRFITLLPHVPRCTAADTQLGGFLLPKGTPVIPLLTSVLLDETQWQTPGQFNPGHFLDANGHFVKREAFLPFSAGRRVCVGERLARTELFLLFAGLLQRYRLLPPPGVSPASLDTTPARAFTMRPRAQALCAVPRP
protocolDetails: Steady-state kinetics of P450 2W1-catalyzed oxidation
Type: in vitro ADME
conditionDetails: human, pH 7.4, Km, P450 2W1, substrate 5F 203, product 8a
metricName: Km at 15 min (µM)
Your answer is read as µM, so omit the unit and give the number.

Lookup result for Cc1cc(-c2nc3cc(F)ccc3s2)ccc1N [5F 203] ; measured Km at 15 min: 31
